Give measured protein stability index for each item. Keep answers brief.
B1: SMOC2 (parent)
chain: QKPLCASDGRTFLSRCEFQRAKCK

# Variants of: B1
# ASSAY_TEXT: protein stability index of a GFP-peptide fusion (GPS, HEK-293T) (PSI 1-6); higher = more stable;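 further: lentivirally expressed fusions sorted by FACS into six bins by GFP to DsRed ratio, PSI derived from sequencing read proportions per bin multiplied by bin number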
# TEST_PARAMETERS: c terminus: a fixed tail appended
One number for each entry.

{"SEQUENCE_CHANGE": "D8K", "QUANTITATIVE_RESULT": 2.56}

Hi there! I need protein stability index for each item below, if you can.
1. G9M
2. C23E
3. F12N
4. K2Y
5. S7T

Response line:
3.19
3.32
3.96
2.48
2.5

Hi there! I need protein stability index for each item below, if you can.
1. K22P
2. L4T
3. G9D

Response line:
2.88
2.65
3.99

Hi there! I need protein stability index for each item below, if you can.
1. Q19T
2. C16Y
3. T11A
4. F18K
5. C5P
6. L4M
7. S14H
8. K22I

Response line:
[3.36, 3.06, 3.12, 4.62, 2.94, 2.29, 3.73, 2.27]

Hi there! I need protein stability index for each item below, if you can.
1. R20P
2. E17S
3. C23I
4. L13T
5. D8E

Response line:
1: 3.61; 2: 2.68; 3: 3.41; 4: 3.93; 5: 3.66

Hi there! I need protein stability index for each item below, if you can.
1. R10E
2. K24N
3. E17R
4. Q19K
5. C16V

Response line:
[3.27, 2.48, 3.5, 3.67, 2.61]

Hi there! I need protein stability index for each item below, if you can.
1. L4S
2. R10K
3. K2A
4. Q19V
5. E17W

Response line:
1: 3.35; 2: 2.96; 3: 2.61; 4: 2.71; 5: 1.54

Hi there! I need protein stability index for each item below, if you can.
1. K24T
2. D8C

Response line:
1: 3.18; 2: 1.63

Hi there! I need protein stability index for each item below, if you can.
1. R10P
2. G9A
3. R15H
4. K22A
5. L4N
6. C23G
7. R10A
8. A21M

Response line:
1: 3.11; 2: 2.58; 3: 3.79; 4: 3.02; 5: 3.08; 6: 3.62; 7: 3.24; 8: 2.88
